- target entity: Brd4 bromodomain 1 (Homo sapiens)
- Construct: made in house; host or cells: E. coli BL21(DE3)
- method notes: Inhibition of binding of tetra-acetylated histone H4 and Brd4 bromodomain 1 by TR-FRET
- condition notes: His-tagged bromodomain 200 nM, biotinylated tetra-acetylated histone H4 peptide 25-50 nM, 2 hours at room temperature
readout: FRET activity (<50 uM)

Example cases with answers are listed next.
INSERT INTO measurements (compound, test_result) VALUES
  ('COc1cc(OC)c2c(=O)n(C)c(-c3cc(C)c(O)c(C)c3)cc2c1', 'Active'),
  ('COc1cc(OC)c2c(=O)[nH]c(-c3cc(C)c(OCCNC(=O)Nc4ccccc4)c(C)c3)nc2c1', 'Active'),
  ('COc1cc(OC)c2c(=O)[nH]c(-c3cc(C)c(O)c(C)c3)cc2n1', 'Active'),
  ('COc1cc(OC)c2c(=O)[nH]c(-c3cc(C)c(OCCNS(=O)(=O)c4ccc(Cl)cc4)c(C)c3)nc2c1', 'Inactive'),
  ('COc1cc(OC)c2c(=O)[nH]c(-c3cc(C)c(NC(=O)CO)c(C)c3)nc2c1', 'Active');

Task: Fill in the blank: the reported FRET activity (<50 uM) of O=c1[nH]c(-c2ccc(O)cc2)cc2ccccc12 [Example 1, 3-(4-Hydroxyphenyl)-2H-isoquinolin-1-one] is ____.
Result: Active

Task: Requested read-out: FRET activity (<50 uM). Entry: `COc1cc(OC)c2c(=O)[nH]c(-c3cc(C)c(O)c(C)c3)nc2c1`
Result: Active

Task: Looking for the measured FRET activity (<50 uM) of `COc1cc(OC)c2c(=O)[nH]c(-c3ccc(OC)c(CN4CCOCC4)c3)nc2c1` , can you help?
Result: Active

Task: What value of FRET activity (<50 uM) has been recorded for this entry: `COc1cc(OC)c2c(=O)[nH]c(-c3cc(C)c(N)c(C)c3)nc2c1`
Result: Active

Task: Recorded FRET activity (<50 uM) for `COc1cc(OC)c2c(=O)[nH]c(-c3cc(C)c(OC)c(C)c3)cc2n1` , please?
Result: Active

Task: Can you share its FRET activity (<50 uM)? I mean this compound: `COc1cc(OC)c2c(=O)[nH]c(-c3ccc(O)c(OC)c3)nc2c1`
Result: Active

Task: Using the record for `COc1cc(OC)c2c(=O)[nH]c(-c3cc(C)c(OCCN4CCOCC4)c(C)c3)nc2c1` , report its FRET activity (<50 uM).
Result: Active
